measured.on: recombinant human LTA4 hydrolase (rhLTA4H) (Homo sapiens)
Sequence (P09960 1-611): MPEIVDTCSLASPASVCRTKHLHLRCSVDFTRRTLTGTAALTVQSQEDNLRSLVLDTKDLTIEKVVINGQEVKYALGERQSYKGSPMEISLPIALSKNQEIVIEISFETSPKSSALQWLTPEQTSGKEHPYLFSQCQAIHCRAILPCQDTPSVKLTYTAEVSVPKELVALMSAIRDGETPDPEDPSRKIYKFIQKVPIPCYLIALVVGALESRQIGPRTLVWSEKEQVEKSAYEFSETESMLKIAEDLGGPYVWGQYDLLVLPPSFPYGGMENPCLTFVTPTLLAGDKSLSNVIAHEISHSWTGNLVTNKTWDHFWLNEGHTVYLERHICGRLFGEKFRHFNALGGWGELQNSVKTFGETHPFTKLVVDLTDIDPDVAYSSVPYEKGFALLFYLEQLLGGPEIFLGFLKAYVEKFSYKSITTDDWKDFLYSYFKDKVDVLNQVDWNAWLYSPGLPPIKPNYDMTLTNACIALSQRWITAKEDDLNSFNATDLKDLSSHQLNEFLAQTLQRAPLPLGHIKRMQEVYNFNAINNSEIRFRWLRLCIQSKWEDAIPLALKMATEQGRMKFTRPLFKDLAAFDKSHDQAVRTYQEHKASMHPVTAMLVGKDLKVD
protocol: Recombinant human LTA4 hydrolase assay for LTA4 hydrolase inhibitor activity
condition.set: Recombinant Human LTA4 Hydrolase Assay IC50 LTA4H
experimental.readout: IC50 (nM)

[a] [O-][n+]1ccc2c(c1)ncn2CCOc1ccc(Cc2ccccc2)cc1 [Example 365]
[b] c1ccc(Cc2ccc(OCCn3cnc4ncncc43)cc2)cc1 [357 A]
Hi team, can someone confirm which has the larger IC50: a or b ? Thanks. # respond with the chosen item's label
a
(a: 82 nM, b: 47 nM)

###

Test system: LTB4 production in mouse blood (LTA4 hydrolase)
protocol: Ex vivo LTB4 production by calcium ionophore stimulated mouse blood after oral dosing
Assay type: in vivo
condition.set: Mus musculus, po, 1 h; read-out: Murine Ex Vivo LTB4 Inhibition % I LTB4
Here, each record is paired with measured inhibition in vivo at 10 mg/kg data.
I only need the number, in %, no unit after it.

>  <molecular.string>
CN(CCCOc1ccc(Cc2ccc(F)cc2)cc1)CCC(=O)O

>  <inhibition in vivo at 10 mg/kg, %>
99

$$$$
>  <molecular.string>
CNC(=O)C1CCN(CCOc2ccc(Cc3ccccc3)cc2)CC1

>  <inhibition in vivo at 10 mg/kg, %>
93

$$$$

Attention now turns to another entry.
May I ask what inhibition in vivo at 10 mg/kg has been recorded for COC(=O)CCN(C)CCCOc1ccc(Cc2ccccc2)s1 ?
67

###

measured.on: recombinant human LTA4 hydrolase (rhLTA4H) (Homo sapiens)
protocol: Recombinant human LTA4 hydrolase assay for LTA4 hydrolase inhibitor activity
condition.set: Recombinant Human LTA4 Hydrolase Assay IC50 LTA4H, recombinant hLTA4H
experimental.readout: IC50 (nM)

>  <compound>
Fc1ccc(Oc2ccc(OCCn3ccc4ncnc-4c3)cc2)cc1 [355 C]

>  <endpoint.unit>
nM

>  <result>
28

$$$$

[a] COC(=O)C1CC2CC1CN2CCOc1ccc(Cc2ccccc2)cc1 (centres unmarked) [Example 440]
[b] c1ccc(Cc2ccc3c(c2)CC(Cn2cnc4cccnc42)O3)cc1 (centres unmarked) [359 A]
[c] c1ccc(Oc2ccc(OCCCn3ccc4ncnc-4c3)cc2)cc1 [351 C]
[d] CCOC(=O)C1CCCN(CCOc2ccc(Cc3ccccc3)cc2)C1 (centres unmarked) [Example 270]
# rank_down: sort by IC50, max first Give the labels in the order specified.
b, d, c, a
(b: 100000 nM, d: 50000 nM, c: 43 nM, a: 30 nM)
